- testSystem: beta-secretase (BACE) in HEK293/APP751sw cells (Homo sapiens, UniProt P56817)
- Construct: endogenous in cells; host or cells: HEK293p (ATCC CRL-1573) stably expressing human APP751 Swedish
- Sequence (P56817 46-501): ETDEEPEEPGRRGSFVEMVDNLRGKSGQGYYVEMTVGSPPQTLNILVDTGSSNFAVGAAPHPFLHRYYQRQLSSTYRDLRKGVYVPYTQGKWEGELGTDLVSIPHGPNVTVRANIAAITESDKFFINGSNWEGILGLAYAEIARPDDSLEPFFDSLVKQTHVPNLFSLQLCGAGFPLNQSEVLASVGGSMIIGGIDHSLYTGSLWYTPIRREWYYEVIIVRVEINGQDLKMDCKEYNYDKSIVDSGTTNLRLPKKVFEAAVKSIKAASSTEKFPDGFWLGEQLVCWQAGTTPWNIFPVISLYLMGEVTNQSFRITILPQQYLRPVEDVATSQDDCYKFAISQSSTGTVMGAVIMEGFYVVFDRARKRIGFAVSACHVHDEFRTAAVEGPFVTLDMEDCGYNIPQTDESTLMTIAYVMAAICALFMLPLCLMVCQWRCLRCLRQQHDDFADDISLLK
- assayProtocol: HEK293Swe whole cell assay (Abeta ELISA)
- Type: cell-based
- experimentalSetup: Table 29; comparator of WO 2007/049532 and enantiomers; read-out: HEK 293 Swe A-beta (1-42) ELISA IC50
reportedProperty: IC50 (µM)
Entry rule: numbers only, all in µM.

As a guide, the following entries are already answered.
CC1(c2ccc(-c3ccccc3)cc2)CCSC(N)=N1 (stereo not drawn) [reference compound] | 35.3
C[C@]1(c2ccc(-c3ccccc3)cc2)CCSC(N)=N1 [reference compound] | 23.7

Please turn your attention to the following entry.
Returns the measured IC50 for the input molecule. Input: C[C@@]1(c2ccc(-c3ccccc3)cc2)CCSC(N)=N1 [reference compound]
16.4
